The origin of these recorded values is the supplement of paper PMC12494721.

So I've got a bunch of molecules here, and I need their fold change of Tryptamine concentration values.
Test system: Ruminococcus gnavus DSM 108212
Assay: fold change of Tryptamine concentration vs plate DMSO controls (fold change (ratio)); higher = more amine produced, active = hit call of the paper (significant change in both replicates, either direction)
Conditions: incubation time: 27 h, anaerobic, 37 °C
Where a name gives a salt, the structure may show the parent alone.
One number for each entry.

Example cases with answers are listed next.
                                   molecule                        attributemeasured  number
0  CCOC(=O)C(C)(N)Cc1cc(I)c(Oc2cc(I)c(O)c(I)c2)c(I)c1 (stereo unspecified) [Etiroxate hydrochloride] (20 µM)  fold change of Tryptamine concentration   0.923
1  N[C@@H](C(=O)N[C@@H]1C(=O)N2C(C(=O)O)=C(Cl)CS[C@H]12)c1ccccc1 [Cefaclor hydrate] (20 µM)  fold change of Tryptamine concentration   0.783

Dear colleague, could you send me fold change of Tryptamine concentration for each of the items below? Thanks.
1. CN1CCC(=C2c3ccccc3CCc3sccc32)CC1 [Pizotifen malate] (20 µM)
2. C[C@H](NCc1ccc(OCc2cccc(F)c2)cc1)C(N)=O [Safinamide] (20 µM)
3. CN(C)/N=N/c1[nH]cnc1C(N)=O [Dacarbazine] (20 µM)

1. 0.924
2. 0.99
3. 1.01

I'm hoping you can list fold change of Tryptamine concentration for every molecule here, please.
1. COC(=O)[C@@H]1[C@H]2C[C@H]3c4[nH]c5ccccc5c4CCN3C[C@@H]2CC[C@@H]1O [Yohimbine hydrochloride] (20 µM)
2. COc1c(Cl)ccc(Cl)c1C(=O)O (20 µM)
3. CCN(CC)C(=O)C1(c2ccccc2)CC1CN (stereo unspecified) [Milnacipran hydrochloride] (20 µM)
4. OC(CCN1CCCC1)(c1ccccc1)C1CCCCC1 (stereo unspecified) [Procyclidine hydrochloride] (20 µM)

1.01
0.997
1.09
0.894

Hey, quick one: what's fold change of Tryptamine concentration for each of these?
1. O=C(O)Cc1csc(-c2ccc(Cl)cc2)n1 [Fenclozic acid] (20 µM)
2. Cc1c(OCC(F)(F)F)ccnc1C[S+]([O-])c1nc2ccccc2[nH]1 (stereo unspecified) [Lansoprazole] (20 µM)

1. 1.05
2. 0.974
